Data credit: paper PMC9482650

target: FRMPD2_1, Q68DX3; experiment: holdup assay; parameters: key: below the threshold = too weak to quantify, mostly under pKd 3.1 to 4; details: plain residues with an end cap or a label only (N-terminal biotin on a linker: ado-ado)
Sequence (Q68DX3 770-861): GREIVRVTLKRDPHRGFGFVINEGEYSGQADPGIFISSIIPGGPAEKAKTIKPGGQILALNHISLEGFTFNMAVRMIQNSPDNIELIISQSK

[
  {
    "BINDER": "HLRARKSEWV [GJD4, Q96KN9]",
    "pKd": 4.24
  },
  {
    "BINDER": "KKAPTNEFYA [SDC4, P31431]",
    "pKd": 3.51
  },
  {
    "BINDER": "AKPSRISTVV [IQSEC2, Q5JU85]",
    "pKd": 3.53
  },
  {
    "BINDER": "TKGPRGPTRV [SAPCD1, Q5SSQ6]",
    "pKd": 4.35
  },
  {
    "BINDER": "IKAIVDLTGL [TRAF2, Q12933]",
    "pKd": "below the threshold"
  },
  {
    "BINDER": "LRSPRTPSEV [OR10G3, Q8NGC4]",
    "pKd": "below the threshold"
  },
  {
    "BINDER": "CLREWCDAFL [BANF1, O75531]",
    "pKd": "below the threshold"
  },
  {
    "BINDER": "SSALYGESDL [ACTN2, P35609]",
    "pKd": "below the threshold"
  }
]
